read-out: Vascular cell adhesion molecule 1 (VCAM1), VCAM1 (gene 7412); test: BSK_hDFCGF_VCAM1: BioMAP Diversity Plus: hDFCGF Assay for Vascular cell adhesion molecule 1 (VCAM1) Biomarker Activity (AID 2283065); conditions: primary human foreskin fibroblasts; actives raise or lower the signal;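 as to AC50: VCAM-1 protein level quantified by ELISA after 24 h chemical exposure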
The source made the active and inactive calls. The calls were made as follows: active = hit-call score of the fitted dose curve at least 0.9, where 1 is the maximum; inactive = score below 0.9.
METRIC: AC50

1. CC=Cc1ccc(OCC)c(O)c1 ... inactive
2. CS(=O)(=O)OCCCCOS(C)(=O)=O ... inactive
3. C=C(C)C(=O)OCCOCCOCCOC(=O)C(=C)C ... inactive
4. CC(=O)c1c(C)c([N+](=O)[O-])c(C(C)(C)C)c([N+](=O)[O-])c1C ... inactive
5. C[C@@H]1CCN(C(=O)[C@H](CCCN=C(N)N)NS(=O)(=O)c2cccc3c2NC[C@H](C)C3)[C@@H](C(=O)O)C1 ... inactive

Task: Can you look up the measured AC50 of `O=C1c2ccccc2C(=O)c2c(O)ccc(O)c21` for me?
Result: inactive

Task: And `CCCCCC(C=O)=Cc1ccccc1` ?
Result: 20 µM (active)

Task: How about `c1ccc2cc(Nc3ccc(Nc4ccc5ccccc5c4)cc3)ccc2c1` ?
Result: inactive

Task: Continue with `CC(C)(C)CC(C)(C)c1ccc(OCCOCC[N+](C)(C)Cc2ccccc2)cc1`
Result: 6.9 µM (active)

Task: Another: `CS(=O)(=O)c1ccc(C2=C(c3ccccc3)C(=O)OC2)cc1`
Result: inactive

Task: # iterate: `CCCCCCCCCCCCCCCC(=O)OC/C=C(C)/C=C/C=C(C)/C=C/C1=C(C)CCCC1(C)C`
Result: inactive

Task: Please do the same for `CCN(CC)C(=O)N(CC)CC` as well.
Result: inactive

Task: Another molecule: `CC1(C)C2=CCCC(C)(C)[C@]23CC[C@H]1C3`
Result: 32.9 µM (active)

Task: Ok, now CC(=O)C1(C)CC2=C(CCCC2(C)C)CC1C (centres undefined)
Result: 9.73 µM (active)

Task: Check `c1ccc(CCc2ccccc2)cc1` too.
Result: 30.9 µM (active)

###

test: ATG_CMV_CIS: Attagene CIS-FACTORIAL HepG2 Assay for human CMV (Internal Marker) (AID 2282928); settings: HepG2 CMV promoter reporter, transcription factor profiling; actives raise or lower the signal;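 also: endpoint acts as a background internal control marker rather than a target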
Activity calls are given as the source filed them. The calls were made as follows: active = hit-call score of the fitted dose curve at least 0.9, where 1 is the maximum; inactive = score below 0.9.
Hi there, use one of these labels in your reply, thanks! yes for active, no for inactive

1. CC=Cc1ccc(OCC)c(O)c1 ... no
2. C=C1CC[C@H](O)C/C1=C/C=C1\CCC[C@]2(C)[C@@H]([C@H](C)/C=C/[C@H](C)C(C)C)CC[C@@H]12 ... no
3. CCC(=O)O[C@@H]1C[C@H]2CC[C@]1(C)C2(C)C ... no

Task: How did this test come out for C=CC(C)C#N (stereo not given) ?
Result: no

Task: And the next one, `CC[N+](C)(CC)CC` ?
Result: no

Task: Here is the next molecule: `ClC(c1ccccc1)(c1ccccc1)c1ccccc1`
Result: no

Task: Check `O=C(O)COCC(=O)O` too.
Result: no

Task: Queued: `CCCCCCCCc1ccc(S(=O)(=O)O)cc1`
Result: no

Task: How about this molecule: `COS(=O)(=O)O`
Result: no

Task: Next entry: `CCCN(CCC)S(=O)(=O)c1ccc(C(=O)O)cc1`
Result: no

###

assay: ATG_PXRE_CIS: Attagene CIS-FACTORIAL HepG2 Assay for human Pregnane X Receptor Element (PXRE) (AID 2282957); settings: HepG2 Attagene CIS-FACTORIAL PXRE reporter, mRNA; actives raise or lower the signal
The source made the active and inactive calls. Rule for the calls: active = hit-call score of the fitted dose curve at least 0.9, where 1 is the maximum; inactive = score below 0.9.
Your response should consist of one outcome taken from T for active, F for inactive

1) CCC1(C)NC(=O)NC1=O (stereo not drawn) ... F
2) CCOc1ccc(NC(=O)CC(C)O)cc1 (stereo not drawn) ... F
3) OCC#CCO ... F
4) O=C1c2ccccc2C(=O)c2c(O)ccc(O)c21 ... T
5) CC1(C)C(=O)N(Cl)C(=O)N1Br ... T
6) CCOC(=O)C1OC1c1ccccc1 (stereo not drawn) ... F
7) CC(=O)CC(=O)Nc1ccccc1 ... F

Proceed to the following item.
Task: For `COc1ccc(CCC(C)=O)cc1` , what call appears in the results of this test?
Result: F

###

target: Hepatocyte nuclear factor 6 (Homo sapiens) (UniProt Q9UBC0); experiment: ATG_HNF6_CIS: Attagene CIS-FACTORIAL HepG2 Assay for human Hepatocyte Nuclear Factor 6 (HNF6) (AID 2282952); conditions: HepG2 Attagene cis-factorial HNF6 reporter transcription; actives raise or lower the signal
Sequence (Q9UBC0 whole entry, looked up): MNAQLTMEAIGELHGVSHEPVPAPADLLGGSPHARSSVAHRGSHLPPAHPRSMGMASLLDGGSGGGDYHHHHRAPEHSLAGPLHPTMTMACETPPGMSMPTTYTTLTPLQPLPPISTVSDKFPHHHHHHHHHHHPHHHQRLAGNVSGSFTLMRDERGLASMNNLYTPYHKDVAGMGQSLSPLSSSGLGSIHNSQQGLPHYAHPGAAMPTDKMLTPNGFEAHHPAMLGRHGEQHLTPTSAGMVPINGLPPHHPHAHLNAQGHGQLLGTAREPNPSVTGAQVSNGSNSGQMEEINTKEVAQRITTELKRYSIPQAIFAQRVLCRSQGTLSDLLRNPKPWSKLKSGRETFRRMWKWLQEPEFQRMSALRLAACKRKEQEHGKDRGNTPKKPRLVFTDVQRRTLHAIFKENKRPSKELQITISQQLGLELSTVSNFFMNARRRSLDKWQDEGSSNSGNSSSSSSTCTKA
The source made the active and inactive calls. The calls were made as follows: active = hit-call score of the fitted dose curve at least 0.9, where 1 is the maximum; inactive = score below 0.9.
METRIC: outcome

See these solved cases before continuing.
1) CCCCOCC ... inactive
2) CCOc1ccc(NC(=O)CC(C)O)cc1 (configuration not stated) ... inactive
3) C=C(C)C(=O)OCC(CC)(COC(=O)C(=C)C)COC(=O)C(=C)C ... inactive
4) C#CC(C)N(C)C(=O)Nc1ccc(Cl)cc1 (configuration not stated) ... inactive
5) OCCc1ccccc1 ... inactive
6) CCC(=O)OCCOc1ccccc1 ... inactive

Task: Could you share what outcome was measured for `Cc1ccc(S(=O)(=O)Oc2ccc(N=Nc3ccc(-c4ccc(N=Nc5c(O)ccc6cc(S(=O)(=O)O)cc(S(=O)(=O)O)c56)c(C)c4)cc3C)cc2)cc1` , tested on Hepatocyte nuclear factor 6 (Homo sapiens) (UniProt Q9UBC0)?
Result: inactive

Task: Continue with `O=C(O)COCC(=O)O`
Result: inactive

Task: Next compound up: `OCC#CCO`
Result: inactive

Task: Cool, now `O=C1OC[C@H](Cc2cccc(O)c2)[C@H]1Cc1cccc(O)c1`
Result: inactive

Task: And what about the compound `CC1(C)CCC[C@]2(C)[C@H]3CCO[C@]3(C)CC[C@@H]12` ?
Result: inactive

###

test: BSK_3C_SRB: Viability Assessment in the BioMAP Diversity Plus: 3C Assay (AID 2283023); conditions: primary human endothelial cells (HUVEC);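 also: cells read 24 h after compound dosing; fitted both ways against DMSO so a hit may be signal rise or drop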
Active and inactive are the calls of the source. How the source made its calls: active means hit-call score of the fitted dose curve at least 0.9, where 1 is the maximum; inactive means score below 0.9.
Mark one answer only. Choices: class 1 (active), class 0 (inactive)

1) COc1ccc(CCN2CCC(Nc3nc4ccccc4n3Cc3ccc(F)cc3)CC2)cc1 ... class 1
2) Oc1c(Cl)cc(Cl)c(Cl)c1Cc1c(O)c(Cl)cc(Cl)c1Cl ... class 1
3) C=C(C)C(=O)OCC(CC)(COC(=O)C(=C)C)COC(=O)C(=C)C ... class 0
4) CCC(C)c1cc([N+](=O)[O-])cc([N+](=O)[O-])c1OC(=O)OC(C)C (stereo unspecified) ... class 1

Task: Record request — test call for `CCCCN(CCCC)C(=O)N(CCCC)CCCC`
Result: class 1

Task: Ok, now `CS(=O)(=O)OCCCCOS(C)(=O)=O`
Result: class 0

###

read-out: Interleukin-8 (IL8), CXCL8 (gene 3576); assay: BSK_MyoF_IL8: BioMAP Diversity Plus: MyoF Assay for Interleukin-8 (IL8) Biomarker Activity (AID 2284261); conditions: primary human lung fibroblasts
Active and inactive are the calls of the source. How the source made its calls: active means hit-call score of the fitted dose curve at least 0.9, where 1 is the maximum; inactive means score below 0.9.
API: response.call in Yes for active, No for inactive

1) Oc1c(Cl)cc(Cl)c(Cl)c1Cc1c(O)c(Cl)cc(Cl)c1Cl ... Yes
2) CN(C)C(=O)Nc1ccc(Oc2ccc(Cl)cc2)cc1 ... No
3) O=C1OC[C@H](Cc2cccc(O)c2)[C@H]1Cc1cccc(O)c1 ... No
4) CC(=O)Nc1ccc(C(=O)CCl)cc1 ... Yes
5) COc1ccc(CCN2CCC(Nc3nc4ccccc4n3Cc3ccc(F)cc3)CC2)cc1 ... Yes

Task: Hello, I am checking results. What call was entered for `C[C@@H]1CCN(C(=O)[C@H](CCCN=C(N)N)NS(=O)(=O)c2cccc3c2NC[C@H](C)C3)[C@@H](C(=O)O)C1` ?
Result: No

Task: Consider next the compound `c1ccc(CCc2ccccc2)cc1` in the same way.
Result: No

###

Target: X-box-binding protein 1 (Homo sapiens) (UniProt P17861)
Sequence (P17861 whole entry, looked up): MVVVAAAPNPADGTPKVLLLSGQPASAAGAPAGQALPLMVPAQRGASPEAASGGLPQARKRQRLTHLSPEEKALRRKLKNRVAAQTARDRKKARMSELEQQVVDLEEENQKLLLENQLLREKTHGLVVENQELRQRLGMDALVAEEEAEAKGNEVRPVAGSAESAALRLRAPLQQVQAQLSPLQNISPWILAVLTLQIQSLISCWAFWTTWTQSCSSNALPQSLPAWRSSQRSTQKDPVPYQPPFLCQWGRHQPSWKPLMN
Assay: ATG_Xbp1_CIS: Attagene CIS-FACTORIAL HepG2 Assay for human X-box Binding Protein 1 (XBP1) (AID 2282972)
Settings: HepG2 XBP1 cis-element reporter, Attagene multiplex; actives raise or lower the signal
Method: ATG_CIS is a cell-based, multiplexed-readout assay that uses HepG2, a human liver cell line, with measurements taken at 24 hours after chemical dosing in a 24-well plate.ATG_Xbp1_CIS is one of 52 assay component(s) measured or calculated from the ATG_CIS assay. […] This assay endpoint, ATG_Xbp1_CIS, was analyzed with bidirectional fitting relative to DMSO as the negative control and baseline of activity. […]
The source made the active and inactive calls. The calls were made as follows: active = hit-call score of the fitted dose curve at least 0.9, where 1 is the maximum; inactive = score below 0.9.
Your answer must be one of the following: active, inactive

Some solved entries appear below for comparison.
1) Nc1ccn([C@H]2CS[C@@H](CO)O2)c(=O)n1 ... inactive
2) CCCCSCCCC ... inactive
3) CCC(C)=O ... inactive
4) CC(=O)C(C)O (stereo not given) ... inactive

Task: Could you please tell me the result logged for `c1ccc(CCc2ccccc2)cc1` in this assay?
Result: inactive

Task: What do you have for `CC1(C)COCN1` ?
Result: inactive

Task: Same question for `CN1CCOCC1` please.
Result: inactive

Task: Record: CCC1(C)NC(=O)NC1=O (stereo not given)
Result: inactive

Task: `CN(C)C(=S)SC(=S)N(C)C` ?
Result: inactive

Task: `C=Cc1ccc(C)cc1` , same question.
Result: inactive

Task: Similarly, `CC1(C)O[C@@H]2[C@@H](CO[C@@]3(COS(N)(=O)=O)OC(C)(C)O[C@@H]23)O1` ?
Result: inactive

Task: Do the same for CC1CCC(C(C)C)C(O)C1 (stereo not given) please
Result: inactive

Task: What about this compound? `CCN(CCC#N)c1ccc(N=Nc2ccc([N+](=O)[O-])cc2)cc1`
Result: inactive

Task: And `COC(C)(C)CC(C)=O` ?
Result: inactive

Task: Same question, CC(C)NCC(O)COc1ccc(CC(N)=O)cc1 (stereo not given) this time
Result: inactive

Task: `CCOC(=O)C(C#N)=C(c1ccccc1)c1ccccc1` , same question.
Result: inactive

Task: Next: `CCc1cc(Cc2cc(CC)cc(C(C)(C)C)c2O)c(O)c(C(C)(C)C)c1`
Result: active

Task: Now try `OCc1ccc(Cl)cc1Cl` .
Result: inactive

Task: # repeat for C=C(C)C(=O)OCCOC1CC2CC1C1C=CCC21 (stereo not given)
Result: inactive
